Tested on: HeLa Kyoto
Assay: solubility change mitosis vs G1/S (difference of NP-40 vs SDS log2 ratios) (log2 ratio difference); higher = more soluble in mitosis
# Lookup of reported solubility change mitosis (log2) keyed by entry
Readout Kind: solubility change mitosis (log2)

MEADKDDTQQILKEHSPDEFIKDEQNKGLIDEITKKNIQLKKEIQKLETELQEATKEFQIKEDIPETKMKFLSVETPENDSQLSNISCSFQVSSKVPYEIQKGQALITFEKEEVAQNVVSMSKHHVQIKDVNLEVTAKPVPLNSGVRFQVYVEVSKMKINVTEIPDTLREDQMRDKLELSFSKSRNGGGEVDRVDYDRQSGSAVITFVEIGVADKILKKKEYPLYINQTCHRVTVSPYTEIHLKKYQIFSGTSKRTVLLTGMEGIQMDEEIVEDLINIHFQRAKNGGGEVDVVKCSLGQPHIAYFEE [NMI]	-0.0719
MLLSLVLHTYSMRYLLPSVVLLGTAPTYVLAWGVWRLLSAFLPARFYQALDDRLYCVYQSMVLFFFENYTGVQILLYGDLPKNKENIIYLANHQSTVDWIVADILAIRQNALGHVRYVLKEGLKWLPLYGCYFAQHGGIYVKRSAKFNEKEMRNKLQSYVDAGTPMYLVIFPEGTRYNPEQTKVLSASQAFAAQRGLAVLKHVLTPRIKATHVAFDCMKNYLDAIYDVTVVYEGKDDGGQRRESPTMTEFLCKECPKIHIHIDRIDKKDVPEEQEHMRRWLHERFEIKDKMLIEFYESPDPERRKRFPGKSVNSKLSIKKTLPSMLILSGLTAGMLMTDAGRKLYVNTWIYGTLLGCLWVTIKA [AGPAT5]	-0.0679
MAALGHLAGEAAAAPGPGTPCASRGARLPGPVSSARNPSTVCLCPEQPTCSNADSRAHPLGDEGGTASKKQKNKKKTRNRASVANGGEKASEKLAPEEVPLSAEAQAQQLAQELAWCVEQLELGLKRQKPTPKQKEQAIGAIRTLRSKRTPLPRKRQLMHSLFGDYRAQMEAEWREALRALRAAAYSAQVQPVDGATRKKSQRVCRPRSIWRAKATLDMPDEEFRFNFF [C8ORF33]	0.747
MATLWGGLLRLGSLLSLSCLALSVLLLAQLSDAAKNFEDVRCKCICPPYKENSGHIYNKNISQKDCDCLHVVEPMPVRGPDVEAYCLRCECKYEERSSVTIKVTIIIYLSILGLLLLYMVYLTLVEPILKRRLFGHAQLIQSDDDIGDHQPFANAHDVLARSRSRANVLNKVEYAQQRWKLQVQEQRKSVFDRHVVLS [TMEM9B]	-0.12

###

System: HeLa Kyoto
Assay: solubility change mitosis vs G1/S (difference of NP-40 vs SDS log2 ratios) (log2 ratio difference); higher = more soluble in mitosis
Below, each entry is listed alongside its reported solubility change mitosis (log2).
Readout Kind: solubility change mitosis (log2)

MFCEKAMELIRELHRAPEGQLPAFNEDGLRQVLEEMKALYEQNQSDVNEAKSGGRSDLIPTIKFRHCSLLRNRRCTVAYLYDRLLRIRALRWEYGSVLPNALRFHMAAEEMEWFNNYKRSLATYMRSLGGDEGLDITQDMKPPKSLYIEVRCLKDYGEFEVDDGTSVLLKKNSQHFLPRWKCEQLIRQGVLEHILS [GINS1]	-0.00378
MAGRLLGKALAAVSLSLALASVTIRSSRCRGIQAFRNSFSSSWFHLNTNVMSGSNGSKENSHNKARTSPYPGSKVERSQVPNEKVGWLVEWQDYKPVEYTAVSVLAGPRWADPQISESNFSPKFNEKDGHVERKSKNGLYEIENGRPRNPAGRTGLVGRGLLGRWGPNHAADPIITRWKRDSSGNKIMHPVSGKHILQFVAIKRKDCGEWAIPGGMVDPGEKISATLKREFGEEALNSLQKTSAEKREIEEKLHKLFSQDHLVIYKGYVDDPRNTDNAWMETEAVNYHDETGEIMDNLMLEAGDDAGKVKWVDINDKLKLYASHSQFIKLVAEKRDAHWSEDSEADCHAL [NUDT9]	0.00145
MADGKAGDEKPEKSQRAGAAGGPEEEAEKPVKTKTVSSSNGGESSSRSAEKRSAEEEAADLPTKPTKISKFGFAIGSQTTKKASAISIKLGSSKPKETVPTLAPKTLSVAAAFNEDEDSEPEEMPPEAKMRMKNIGRDTPTSAGPNSFNKGKHGFSDNQKLWERNIKSHLGNVHDQDN [PCNP]	0.0732

###

Test system: HeLa Kyoto
Assay: solubility in G1/S (NP-40 vs SDS abundance) (log2 ratio); higher = more soluble
Conditions: cell cycle stage: G1/S
Think of 0.1 as a floor: if solubility in G1/S (log2) stands on it or above, it is fulfilled; beneath it, not fulfilled.

MAPGSRGERSSFRSRRGPGVPSPQPDVTMLSRLLKEHQAKQNERKELQEKRRREAITAATCLTEALVDHLNVGVAQAYMNQRKLDHEVKTLQVQAAQFAKQTGQWIGMVENFNQALKEIGDVENWARSIELDMRTIATALEYVYKGQLQSAPS [BLOC1S1]	fulfilled
MAGPESDAQYQFTGIKKYFNSYTLTGRMNCVLATYGSIALIVLYFKLRSKKTPAVKAT [USMG5]	not fulfilled
MRLLPRLLLLLLLVFPATVLFRGGPRGLLAVAQDLTEDEETVEDSIIEDEDDEAEVEEDEPTDLVEDKEEEDVSGEPEASPSADTTILFVKGEDFPANNIVKFLVGFTNKGTEDFIVESLDASFRYPQDYQFYIQNFTALPLNTVVPPQRQATFEYSFIPAEPMGGRPFGLVINLNYKDLNGNVFQDAVFNQTVTVIEREDGLDGETIFMYMFLAGLGLLVIVGLHQLLESRKRKRPIQKVEMGTSSQNDVDMSWIPQETLNQINKASPRRLPRKRAQKRSVGSDE [SSR1]	fulfilled
MRCCHICKLPGRVMGIRVLRLSLVVILVLLLVAGALTALLPSVKEDKMLMLRREIKSQGKSTMDSFTLIMQTYNRTDLLLKLLNHYQAVPNLHKVIVVWNNIGEKAPDELWNSLGPHPIPVIFKQQTANRMRNRLQVFPELETNAVLMVDDDTLISTPDLVFAFSVWQQFPDQIVGFVPRKHVSTSSGIYSYGSFEMQAPGSGNGDQYSMVLIGASFFNSKYLELFQRQPAAVHALIDDTQNCDDIAMNFIIAKHIGKTSGIFVKPVNMDNLEKETNSGYSGMWHRAEHALQRSYCINKLVNIYDSMPLRYSNIMISQFGFPYANYKRKI [EXTL2]	fulfilled
METSAPRAGSQVVATTARHSAAYRADPLRVSSRDKLTEMAASSQGNFEGNFESLDLAEFAKKQPWWRKLFGQESGPSAEKYSVATQLFIGGVTGWCTGFIFQKVGKLAATAVGGGFFLLQLANHTGYIKVDWQRVEKDMKKAKEQLKIRKSNQIPTEVRSKAEEVVSFVKKNVLVTGGFFGGFLLGMAS [FUNDC2]	not fulfilled
MTVARPSVPAALPLLGELPRLLLLVLLCLPAVWGDCGLPPDVPNAQPALEGRTSFPEDTVITYKCEESFVKIPGEKDSVICLKGSQWSDIEEFCNRSCEVPTRLNSASLKQPYITQNYFPVGTVVEYECRPGYRREPSLSPKLTCLQNLKWSTAVEFCKKKSCPNPGEIRNGQIDVPGGILFGATISFSCNTGYKLFGSTSSFCLISGSSVQWSDPLPECREIYCPAPPQIDNGIIQGERDHYGYRQSVTYACNKGFTMIGEHSIYCTVNNDEGEWSGPPPECRGKSLTSKVPPTVQKPTTVNVPTTEVSPTSQKTTTKTTTPNAQATRSTPVSRTTKHFHETTPNKGSGTTSGTTRLLSGHTCFTLTGLLGTLVTMGLLT [CD55]	not fulfilled

###

Tested on: HeLa Kyoto
Assay: thermal stability score vs G1/S (z-score of summed log2 fold changes over temperatures); higher = more thermally stable than in G1/S
Conditions: cell cycle stage: mitosis
Readout Kind: thermal stability score

MESYDIIANQPVVIDNGSGVIKAGFAGDQIPKYCFPNYVGRPKHMRVMAGALEGDLFIGPKAEEHRGLLTIRYPMEHGVVRDWNDMERIWQYVYSKDQLQTFSEEHPVLLTEAPLNPSKNREKAAEVFFETFNVPALFISMQAVLSLYATGRTTGVVLDSGDGVTHAVPIYEGFAMPHSIMRVDIAGRDVSRYLRLLLRKEGVDFHTSAEFEVVRTIKERACYLSINPQKDEALETEKVQYTLPDGSTLDVGPARFRAPELLFQPDLVGDESEGLHEVVAFAIHKSDMDLRRTLFANIVLSGGSTLFKGFGDRLLSEVKKLAPKDIKIKISAPQERLYSTWIGGSILASLDTFKKMWVSKKEYEEDGSRAIHRKTF [ACTR1B]	-1.12
MAAEGWIWRWGWGRRCLGRPGLLGPGPGPTTPLFLLLLLGSVTADITDGNSEHLKREHSLIKPYQGVGSSSMPLWDFQGSTMLTSQYVRLTPDERSKEGSIWNHQPCFLKDWEMHVHFKVHGTGKKNLHGDGIALWYTRDRLVPGPVFGSKDNFHGLAIFLDTYPNDETTERVFPYISVMVNNGSLSYDHSKDGRWTELAGCTADFRNRDHDTFLAVRYSRGRLTVMTDLEDKNEWKNCIDITGVRLPTGYYFGASAGTGDLSDNHDIISMKLFQLMVEHTPDEESIDWTKIEPSVNFLKSPKDNVDDPTGNFRSGPLTGWRVFLLLLCALLGIVVCAVVGAVVFQKRQERNKRFY [LMAN2]	5.52
MLFYSFFKSLVGKDVVVELKNDLSICGTLHSVDQYLNIKLTDISVTDPEKYPHMLSVKNCFIRGSVVRYVQLPADEVDTQLLQDAARKEALQQKQ [LSM2]	-1.99
